# EXPERIMENT_DESCRIPTION: qHTS assay for identifying genotoxic compounds that show differential cytotoxicity against isogenic chicken DT40 cell lines with known DNA damage response pathways - wild type cell line (AID 743012); also: nearly all actives have a fitted effect of over 60% in size
# PARTICULARS: DT40 wild type chicken cells viability, CellTiter-Glo, 40 h; series mostly up to 68.4 µM
Results filed as inconclusive are left out. The source made the active and inactive calls. Calls follow the shape of the dose curve; as a rule, active = well fitted cell-killing curve with a large enough effect in the repeat runs; inconclusive = weak or mixed curves, or effect the other way; inactive = no such curve, though single readings can be large or run the other way.
Please state which outcome applies, choosing from Y (active), N (inactive)

Solved cases (2 shown):
Req: Would you mind telling me which call this test gave C1CN(SSN2CCOCC2)CCO1 ?
Resp: Y

Req: What do we get for CCCCCCC(C)O (centres undefined) ?
Resp: N

New cases:
Req: Would you mind telling me which call this test gave CC[C@]12CCCN3CCc4c(n(c5ccccc45)[C@@](O)(C(=O)OC)C1)[C@@H]32 ?
Resp: N

Req: What do we get for NCCS(=O)(=O)O ?
Resp: N

* * *

# EXPERIMENT_DESCRIPTION: qHTS assay for small molecule agonists of the antioxidant response element (ARE) signaling pathway (AID 743202)
# PARTICULARS: HepG2 ARE-bla reporter, beta-lactamase FRET, 16 h; series mostly up to 73.3 µM
Records with an inconclusive call do not appear. Activity calls are given as the source filed them. Calls come from the whole dose curve; as a rule, active = well fitted activation curve with a large enough effect in the signal ratio in the repeat runs (not every such curve was filed as active); inconclusive = weak or mixed curves, or effect the other way; inactive = no such curve, though single readings can be large or run the other way; the % refers to the signal ratio.
Please state which outcome applies, choosing from active, inactive

Req: Would you mind telling me which call this test gave COc1ccc2nc(N)sc2c1 ?
Resp: inactive

Req: What do we get for CCC(Cc1c(I)cc(I)c(N)c1I)C(=O)O (centres undefined) ?
Resp: active

Req: What do we get for Cc1ccc(N)c([N+](=O)[O-])c1 ?
Resp: inactive

Req: What do we get for O=C1CCc2ccccc2O1 ?
Resp: inactive

Req: What do we get for C=CCOC(=O)C(=C)C ?
Resp: inactive

New cases:
Req: Would you mind telling me which call this test gave Cc1ccc(S(=O)(=O)O)cc1C ?
Resp: inactive

Req: What do we get for Cc1ccc(S(=O)(=O)NCl)cc1 ?
Resp: inactive

Req: What do we get for Cc1ccc(C(C)(C)C)cc1 ?
Resp: inactive

Req: What do we get for FC(F)(F)C(Cl)Br (centres undefined) ?
Resp: inactive

Req: What do we get for C/C=C/C(=O)N(CC)c1ccccc1C ?
Resp: inactive

Req: What do we get for C[N+](C)(C)CCO ?
Resp: inactive

Req: What do we get for CCCCCCCCCCCCCO ?
Resp: inactive

Req: What do we get for O=S1(=O)CCCO1 ?
Resp: inactive

Req: What do we get for CC(=O)Nc1ccc2c(c1)Cc1cc(NC(C)=O)ccc1-2 ?
Resp: inactive

Req: What do we get for CCC(=O)O[C@H]1[C@H](O[C@@H]2[C@@H](C)[C@H](O[C@H]3C[C@@](C)(OC)[C@@H](O)[C@H](C)O3)[C@@H](C)C(=O)O[C@H](CC)[C@@](C)(O)[C@H](O)[C@@H](C)C(=O)[C@H](C)C[C@@]2(C)O)O[C@H](C)C[C@@H]1N(C)C ?
Resp: inactive

Req: What do we get for C=C[C@@]1(C)CC(=O)[C@]2(O)[C@@]3(C)[C@@H](O)CCC(C)(C)[C@@H]3[C@H](O)[C@H](OC(C)=O)[C@@]2(C)O1 ?
Resp: inactive

Req: What do we get for C=CC(=O)OCCCC ?
Resp: inactive

Req: What do we get for C=CCNCC=C ?
Resp: inactive

Req: What do we get for C1CN(SSN2CCOCC2)CCO1 ?
Resp: inactive

Req: What do we get for CCCCCCCC/C=C\CCCCCCCC(=O)O ?
Resp: inactive

Req: What do we get for c1ccc2cc3ccccc3cc2c1 ?
Resp: inactive

Req: What do we get for Nc1ccc(O)c(N)c1 ?
Resp: inactive

Req: What do we get for CCOC(=O)C(C)Oc1ccc(Oc2cnc3cc(Cl)ccc3n2)cc1 (centres undefined) ?
Resp: inactive

Req: What do we get for CC(C)(Oc1ccc(Cl)cc1)C(=O)O ?
Resp: inactive
